As shown below, each of these compounds has a reported IC50 value.
# Target under test: PI3K-gamma (Homo sapiens, UniProt P48736)
# Sequence (P48736 whole entry, species assumed): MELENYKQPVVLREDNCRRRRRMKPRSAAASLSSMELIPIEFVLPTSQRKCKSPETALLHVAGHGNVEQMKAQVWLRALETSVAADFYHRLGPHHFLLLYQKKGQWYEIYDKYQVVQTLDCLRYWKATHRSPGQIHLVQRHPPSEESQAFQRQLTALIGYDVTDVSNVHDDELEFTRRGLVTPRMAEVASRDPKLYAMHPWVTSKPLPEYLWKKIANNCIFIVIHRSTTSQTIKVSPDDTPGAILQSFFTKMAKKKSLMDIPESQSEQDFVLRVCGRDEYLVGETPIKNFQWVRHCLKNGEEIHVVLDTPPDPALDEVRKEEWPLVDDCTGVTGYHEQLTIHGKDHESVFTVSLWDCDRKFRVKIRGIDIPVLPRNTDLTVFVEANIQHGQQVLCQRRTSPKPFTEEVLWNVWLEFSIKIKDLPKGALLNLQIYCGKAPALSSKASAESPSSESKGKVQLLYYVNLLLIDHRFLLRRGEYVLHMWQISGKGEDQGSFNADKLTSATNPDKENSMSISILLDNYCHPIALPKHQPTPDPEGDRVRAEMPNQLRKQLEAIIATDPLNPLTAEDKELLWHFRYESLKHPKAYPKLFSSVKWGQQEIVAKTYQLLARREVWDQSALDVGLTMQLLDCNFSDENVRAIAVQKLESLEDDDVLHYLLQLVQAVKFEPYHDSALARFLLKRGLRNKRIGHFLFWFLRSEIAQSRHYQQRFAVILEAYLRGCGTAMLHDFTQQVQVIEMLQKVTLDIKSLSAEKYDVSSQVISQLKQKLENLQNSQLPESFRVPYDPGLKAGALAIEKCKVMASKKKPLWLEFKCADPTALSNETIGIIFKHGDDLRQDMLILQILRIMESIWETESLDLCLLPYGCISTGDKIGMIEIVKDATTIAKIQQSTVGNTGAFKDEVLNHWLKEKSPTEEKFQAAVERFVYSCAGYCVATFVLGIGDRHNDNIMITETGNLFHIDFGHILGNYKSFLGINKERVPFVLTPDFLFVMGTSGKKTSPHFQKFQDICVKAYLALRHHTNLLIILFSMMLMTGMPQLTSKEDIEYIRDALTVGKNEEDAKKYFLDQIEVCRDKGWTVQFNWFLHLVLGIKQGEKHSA
# Assay notes: PI3K-gamma fluorescence polarization assay
# Format: biochemical
# Details: PI3Kγ Avg. IC50
Express it in nM; write the number only.

CNC(=O)Nc1ccc2c(c1)C(=O)/C(=C/c1c[nH]c3c(/C=C/CN(C)C)cc(OC)cc13)O2 [Compound 573] :: 1590
CNCCNC(=O)c1ccc(NC(=O)Nc2ccc3c(c2)C(=O)/C(=C/c2c(C4CCCCC4)[nH]c4ccc(OC)cc24)O3)cc1 [Compound 660] :: 2.95
CCN1CCN(C(=O)c2ccc(NC(=O)Nc3ccc4c(c3)C(=O)/C(=C/c3c(-c5c(C)nn(C)c5C)[nH]c5ccc(OC)cc35)O4)cc2)CC1 [Compound 699] :: 3

Would you kindly share the measured IC50 for CCn1c(C)c(/C=C2\Oc3ccc(NC(=O)Nc4ccc(C(=O)N5CCOCC5)cc4)cc3C2=O)c2cc(OC)ccc21 [Compound 686] ?
5

Would you kindly share the measured IC50 for CNC(=O)Nc1ccc2c(c1)C(=O)/C(=C/c1c(-c3cnn(C)c3)[nH]c3c(F)cc(OC)cc13)O2 [Compound 718] ?
9.5

Would you kindly share the measured IC50 for CNC(=O)Nc1cc2c(cc1C)O/C(=C\c1c(C)n(CCN3CCN(C)CC3)c3ccc(OC)cc13)C2=O [Compound 640] ?
6040

====

# Target under test: PI3K-alpha (Homo sapiens)
# Sequence (P42336 whole entry, species assumed): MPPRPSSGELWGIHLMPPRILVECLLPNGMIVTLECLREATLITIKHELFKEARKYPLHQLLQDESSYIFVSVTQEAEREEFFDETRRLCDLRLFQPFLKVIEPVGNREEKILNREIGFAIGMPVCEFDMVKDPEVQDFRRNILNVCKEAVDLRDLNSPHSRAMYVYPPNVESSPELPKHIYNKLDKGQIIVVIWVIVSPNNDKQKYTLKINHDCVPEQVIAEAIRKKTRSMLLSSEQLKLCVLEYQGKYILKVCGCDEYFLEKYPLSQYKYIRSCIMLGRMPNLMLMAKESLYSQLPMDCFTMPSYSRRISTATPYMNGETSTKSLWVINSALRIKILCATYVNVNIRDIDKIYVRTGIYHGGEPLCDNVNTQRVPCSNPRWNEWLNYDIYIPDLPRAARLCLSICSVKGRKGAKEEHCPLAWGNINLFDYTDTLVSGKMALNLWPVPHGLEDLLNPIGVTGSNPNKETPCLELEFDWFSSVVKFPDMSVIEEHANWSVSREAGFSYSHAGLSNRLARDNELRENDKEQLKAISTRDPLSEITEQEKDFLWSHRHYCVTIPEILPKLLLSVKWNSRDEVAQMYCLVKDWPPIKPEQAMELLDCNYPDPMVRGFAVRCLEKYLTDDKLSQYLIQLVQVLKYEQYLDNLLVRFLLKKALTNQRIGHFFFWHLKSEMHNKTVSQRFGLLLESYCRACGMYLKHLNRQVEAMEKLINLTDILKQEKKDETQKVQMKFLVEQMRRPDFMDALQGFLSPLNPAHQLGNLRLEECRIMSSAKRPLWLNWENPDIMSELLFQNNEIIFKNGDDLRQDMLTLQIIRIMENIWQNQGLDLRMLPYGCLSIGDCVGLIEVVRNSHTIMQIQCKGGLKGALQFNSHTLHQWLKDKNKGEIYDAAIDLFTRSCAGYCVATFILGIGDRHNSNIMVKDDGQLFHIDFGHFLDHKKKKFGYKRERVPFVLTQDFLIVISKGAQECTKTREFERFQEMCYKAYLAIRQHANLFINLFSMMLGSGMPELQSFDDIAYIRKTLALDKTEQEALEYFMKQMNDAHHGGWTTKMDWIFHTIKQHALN
# Sequence (P27986 whole entry partner, species assumed): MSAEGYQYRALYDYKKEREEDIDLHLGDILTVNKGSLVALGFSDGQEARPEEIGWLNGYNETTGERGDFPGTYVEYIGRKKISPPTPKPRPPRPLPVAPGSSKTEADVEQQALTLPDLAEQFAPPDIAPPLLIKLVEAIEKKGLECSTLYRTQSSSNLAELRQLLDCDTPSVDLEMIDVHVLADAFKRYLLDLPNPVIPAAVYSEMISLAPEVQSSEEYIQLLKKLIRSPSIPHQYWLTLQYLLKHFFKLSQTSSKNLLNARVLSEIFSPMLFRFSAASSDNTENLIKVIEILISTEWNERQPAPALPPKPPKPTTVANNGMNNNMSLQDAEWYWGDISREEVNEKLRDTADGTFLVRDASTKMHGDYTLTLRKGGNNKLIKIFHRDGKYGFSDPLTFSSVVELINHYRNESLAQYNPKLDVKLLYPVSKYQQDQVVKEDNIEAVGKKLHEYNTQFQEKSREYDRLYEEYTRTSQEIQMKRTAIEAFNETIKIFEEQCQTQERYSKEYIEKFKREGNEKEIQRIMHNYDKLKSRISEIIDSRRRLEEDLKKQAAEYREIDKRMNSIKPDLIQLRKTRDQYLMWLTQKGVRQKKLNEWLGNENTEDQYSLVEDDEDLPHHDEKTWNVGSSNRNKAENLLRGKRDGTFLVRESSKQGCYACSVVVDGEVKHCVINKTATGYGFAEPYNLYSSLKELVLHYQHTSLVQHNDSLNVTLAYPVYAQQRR
# Assay notes: PI3K-alpha fluorescence polarization assay
# Format: biochemical
# Details: read-out: PI3Kα Avg. IC50
pIC50: −log10 of the molar value.
Binary call on pIC50: Yes from 8 upward, No beneath that.

// below: answered compounds
Cn1cc(/C=C2\Oc3cc(O)cc(O)c3C2=O)c2c(-c3ccc(N)nc3)cccc21 [Example 380] :: No
O=C1/C(=C/c2c(-c3ccc(Cl)cc3)[nH]c3ccccc23)Oc2c1ccc(O)c2O [Example 54] :: No
CCNC(=O)Nc1ccc2c(c1)C(=O)/C(=C/c1c[nH]c3ccc(OC)cc13)O2 [Compound 489] :: No
CCn1c(C)c(/C=C2\Oc3ccc(NC(=O)Nc4ccc(C(=O)N(C)CCN(C)C)cc4)cc3C2=O)c2cc(OC)ccc21 [Compound 639] :: Yes

# ---- query compound ----
Does pIC50 meet or surpass 8 for COc1ccc2c(c1)c(/C=C1\Oc3cc(O)cc(O)c3C1=O)c(C1CC1)n2CCn1cccn1 [Example 340] ?
Yes

====

# Target under test: PI3K-delta (Homo sapiens, UniProt O00329)
# Sequence (O00329 whole entry, species assumed, one chain of several): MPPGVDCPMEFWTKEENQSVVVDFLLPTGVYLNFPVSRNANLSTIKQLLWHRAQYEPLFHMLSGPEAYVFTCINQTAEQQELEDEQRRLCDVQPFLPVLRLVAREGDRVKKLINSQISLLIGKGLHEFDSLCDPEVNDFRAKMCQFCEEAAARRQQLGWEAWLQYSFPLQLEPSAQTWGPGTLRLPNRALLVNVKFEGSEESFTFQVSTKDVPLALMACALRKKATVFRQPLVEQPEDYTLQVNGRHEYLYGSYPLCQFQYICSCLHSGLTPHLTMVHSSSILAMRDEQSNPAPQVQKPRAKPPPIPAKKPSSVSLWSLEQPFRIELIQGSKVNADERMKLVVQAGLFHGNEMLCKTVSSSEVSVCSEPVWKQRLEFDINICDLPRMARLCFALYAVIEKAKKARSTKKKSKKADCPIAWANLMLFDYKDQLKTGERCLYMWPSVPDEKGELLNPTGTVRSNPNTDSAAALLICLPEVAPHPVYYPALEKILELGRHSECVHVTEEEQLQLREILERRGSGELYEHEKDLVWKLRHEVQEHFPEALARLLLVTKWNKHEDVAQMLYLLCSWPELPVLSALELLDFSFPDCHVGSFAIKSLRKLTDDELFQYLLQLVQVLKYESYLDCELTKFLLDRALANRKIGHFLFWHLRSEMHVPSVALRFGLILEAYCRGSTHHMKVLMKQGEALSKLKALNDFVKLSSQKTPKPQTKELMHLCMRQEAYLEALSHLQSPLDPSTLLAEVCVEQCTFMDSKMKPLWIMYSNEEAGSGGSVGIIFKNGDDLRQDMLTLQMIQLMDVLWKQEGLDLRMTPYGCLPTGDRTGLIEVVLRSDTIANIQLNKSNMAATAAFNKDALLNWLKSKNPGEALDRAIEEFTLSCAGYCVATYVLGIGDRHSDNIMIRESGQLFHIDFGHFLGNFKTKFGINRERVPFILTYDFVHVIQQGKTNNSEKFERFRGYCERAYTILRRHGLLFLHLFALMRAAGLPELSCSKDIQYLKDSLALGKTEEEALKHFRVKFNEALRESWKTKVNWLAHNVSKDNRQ
# Assay notes: PI3K-delta fluorescence polarization assay
# Assay type: biochemical
# Details: read-out: PI3Kδ Avg. IC50
As shown below, each of these compounds has a reported IC50 value.
Express it in nM; write the number only.

COc1ccc2[nH]c(CN3CCN(C)CC3)c(/C=C3\Oc4cc(O)cc(O)c4C3=O)c2c1 [Example 346] :: 3

Would you kindly share the measured IC50 for COc1ccc2c(c1)c(/C=C1\Oc3cc(O)cc(O)c3C1=O)c(C(F)(F)F)n2CCn1cccn1 [Example 337] ?
9.7

Would you kindly share the measured IC50 for COc1ccc2c(c1)c(C=C1Oc3cc(O)cc(O)c3C1=O)c(C)n2CCCCN1CCC(N(C)C)C1 (stereo not shown) [Example 99] ?
2

Would you kindly share the measured IC50 for COc1ccc2c(c1)c(/C=C1\Oc3cc(O)cc(O)c3C1=O)c(C1CC1)n2CCn1ccnc1 [Example 334] ?
1.5

Would you kindly share the measured IC50 for COc1ccc2[nH]c(-c3cccnc3)c(C=C3Oc4cc(O)cc(O)c4C3=O)c2c1 [Example 91] ?
1.8

Would you kindly share the measured IC50 for COc1ccc2c(c1)c(/C=C1\Oc3cc(O)cc(O)c3C1=O)c(C(F)(F)F)n2CC(=O)N(C)C [Example 333] ?
51

Would you kindly share the measured IC50 for COc1ccc2c(c1)c(/C=C1\Oc3cc(O)c(F)cc3C1=O)c(C)n2CCN1CCN(C)CC1 [Example 351] ?
9

Would you kindly share the measured IC50 for O=C1/C(=C/c2c(-c3ccccc3)[nH]c3ccccc23)Oc2c1ccc(O)c2O [Example 53] ?
70.3

Would you kindly share the measured IC50 for COc1ccc2[nH]c(C(=O)N3CCN(C)CC3)c(/C=C3\Oc4cc(O)cc(O)c4C3=O)c2c1 [Example 331] ?
6.5

Would you kindly share the measured IC50 for COc1ccc2c(c1)c(/C=C1\Oc3cc(O)cc(O)c3C1=O)cn2CCN1CCC(O)C1 (stereo not shown) [Example 326] ?
9.5

Would you kindly share the measured IC50 for COc1ccc2c(c1)c(C=C1Oc3cc(O)cc(O)c3C1=O)c(C)n2CCN1CCOCC1 [Example 107] ?
5.8

Would you kindly share the measured IC50 for COc1ccc2c(c1)c(C=C1Oc3cc(O)cc(O)c3C1=O)c(C)n2CCCCN1CCN(CCO)CC1 [Example 98] ?
1

Would you kindly share the measured IC50 for COc1ccc2[nH]c(-c3cncnc3)c(/C=C3\Oc4cc(O)cc(O)c4C3=O)c2c1 [Example 354] ?
14.5

Would you kindly share the measured IC50 for O=C1/C(=C/c2c(-c3ccc4ccccc4c3)[nH]c3ccccc23)Oc2c1ccc(O)c2O [Example 55] ?
32

Would you kindly share the measured IC50 for COc1ccc2c(c1)c(C=C1Oc3cc(O)cc(O)c3C1=O)c(C)n2CCCCN1CCOCC1 [Example 97] ?
0.9

Would you kindly share the measured IC50 for O=C1/C(=C/c2c(-c3ccc(Cl)cc3)[nH]c3ccccc23)Oc2c1ccc(O)c2O [Example 54] ?
33.5

====

# Target under test: PI3K-alpha (Homo sapiens)
# Assay notes: PI3K-alpha fluorescence polarization assay
# Assay type: biochemical
# Details: read-out: PI3Kα Avg. IC50
pIC50: −log10 of the molar value.
Binary call on pIC50: yes from 7 upward, no beneath that.

// below: answered compounds
COc1ccc2c(c1)c(/C=C1\Oc3cc(O)ccc3C1=O)c(C)n2CCN1CCC(C)CC1 [Example 455] :: yes
Cn1cc(/C=C2\Oc3cc(O)cc(O)c3C2=O)c2c(-c3ccc(NC(=O)NC4CC4)cc3)cccc21 [Example 401] :: no
CNC(=O)Nc1ccc2c(c1)C(=O)/C(=C/c1c(-c3c(C)noc3C)[nH]c3ccc(OC)cc13)O2 [Compound 581] :: yes
O=C1/C(=C/c2c(-c3ccc(Cl)cc3)[nH]c3ccccc23)Oc2ccccc21 [Example 17] :: no
O=C1C(=Cc2c(-c3ccsc3)[nH]c3ccccc23)Oc2cc(O)cc(O)c21 [Example 207] :: no
COc1ccc2c(c1)c(C=C1Oc3cc(O)cc(O)c3C1=O)c(C)n2CCCN1CCC(N(C)C)C1 (stereo not drawn) [Example 104] :: yes

Does pIC50 meet or surpass 7 for N#Cc1ccc2[nH]cc(C=C3Oc4cc(O)cc(O)c4C3=O)c2c1 [Example 182] ?
no

Does pIC50 meet or surpass 7 for Cn1cc(/C=C2\Oc3cc(O)cc(O)c3C2=O)c2c(-c3cnn(CCN4CCOCC4)c3)cccc21 [Example 403] ?
no

Does pIC50 meet or surpass 7 for CNC(=O)Nc1ccc2c(c1)C(=O)/C(=C/c1c(C)n(CCCN3CCCCC3)c3ccc(OC)cc13)O2 [Compound 588] ?
yes

Does pIC50 meet or surpass 7 for COc1cc(F)c2[nH]c(-c3c(C)nn(C)c3C)c(/C=C3\Oc4ccc(NC(=O)NCCN)cc4C3=O)c2c1 [Compound 715] ?
yes

Does pIC50 meet or surpass 7 for COc1ccc2c(c1)c(/C=C1\Oc3ccc(NC(=O)Nc4ccc(C(=O)N(C)CCN(C)C)cc4)cc3C1=O)c(C)n2CCN1CCN(C)CC1 [Compound 649] ?
yes

Does pIC50 meet or surpass 7 for COc1ccc2[nH]c(-c3ccccc3)c(/C=C3\Oc4cccc(O)c4C3=O)c2c1 [Example 304] ?
yes

====

# Target under test: PI3K-gamma (Homo sapiens)
# Assay notes: PI3K-gamma fluorescence polarization assay
# Format: biochemical
# Details: PI3Kγ Avg. IC50
# Procedure: PI3K-Alpha, PI3K-Beta, PI3K-Gamma, and PI3K-delta Fluorescence Polarization Assay Protocols PI3-Kinase reactions were performed in 5 mM HEPES, pH 7, 2.5 mM MgCl2, and 25 μM ATP, with diC8-PI(4,5)P2 (Echelon, Salt Lake City Utah) as substrate. Nunc 384-well black polypropylene fluorescent plates were used for PI3K assays. […] Assay Plates were read on Perkin-Elmer Envision plate readers with appropriate filters for Tamra [BODIPY-TMRI(1,3,4,5)P4]. […]
Readout name: pIC50
Hey, just a heads up that pIC50 is the negative log base 10 of the concentration in molar.

// known answers, use as guide
COc1ccc2[nH]cc(C=C3Oc4cc(O)cc(Br)c4C3=O)c2c1 :: 6.09
CNC(=O)Nc1ccc2c(c1)C(=O)/C(=C/c1cn(CCCN(C)C)c3ccc(OC)cc13)O2 :: 5.40
COc1ccc2c(c1)c(C=C1Oc3cc(O)cc(O)c3C1=O)cn2CCCN1CCOCC1 :: 6.19
COc1ccc2c(c1)c(/C=C1\Oc3cc(O)c(F)cc3C1=O)c(C)n2CCCN(C)C :: 5.41
COc1cc(-c2cccnc2)c2[nH]cc(/C=C3\Oc4cc(O)ccc4C3=O)c2c1 :: 5.45

Attention now shifts to the item below.
Would you kindly share the measured pIC50 for COc1ccc2c(c1)c(C=C1Oc3cc(O)cc(O)c3C1=O)cn2CCCN(C)C ?
5.62

Sourced from patent US20090311217A1
